Would you kindly list TGI for each of these molecules?
# System: KM20L2 colon
# Procedure Text: NCI tumour cell line growth inhibition, 48 h

Previously resolved entries follow.
{"columns": ["Molecule", "TGI"],
 "data": [
  ["N#CC1=C(N)n2c(s/c(=C\\c3ccc(Cl)cc3)c2=O)=C(c2nc3ccccc3[nH]2)C1c1ccc(Cl)cc1 (stereo not drawn)", "6.06 µM"],
  ["C=C1C(=O)O[C@@H]2C[C@@H](C)[C@@H]3C=CC(=O)[C@@]3(C)[C@@H](OC(=O)CC(=O)O[C@H]3[C@@H]4C(=C)C(=O)O[C@@H]4C[C@@H](C)[C@@H]4C=CC(=O)[C@]43C)[C@H]12", "0.237 µM"],
  ["Cc1cccc2c(=O)c([Se]c3coc4c(C)cccc4c3=O)coc12", "52.6 µM"],
  ["Cc1[nH]c2ccccc2c1C(=O)CC1(O)C(=O)Nc2ccccc21 (stereo not drawn)", "> 100 µM"]
]}

# batch: return TGI for each of the 2 molecules below
1. CC(NC(=O)C(C)NC(=O)C(N)CCP(C)(=O)O)C(=O)O (stereo not drawn)
2. C=C(COC(C)=O)CC(OC(C)=O)c1ccccc1 (stereo not drawn)

["> 100 µM", "> 100 µM"]

// for each molecule in input: emit TGI
1. COc1ccc(S(=O)(=O)Nc2ccccc2C(=O)O)cc1
2. CCCN(CCCC(NC(C)=O)C(=O)NCc1ccccc1)C(=O)N(CCCl)N=O (stereo not drawn)
3. Cc1ccc(N2Cc3c(ccc4ccccc34)OP2(=O)Oc2ccc(Cl)c(C)c2)cc1 (stereo not drawn)
4. CC1CCC2(CC1)NN=c1s/c(=C\c3ccc(O)cc3)c(=O)n1N2 (stereo not drawn)
5. COc1cc2c(cc1OC)C(C(CO)CO)N(CC(O)CCl)CC2 (stereo not drawn)
6. CN(C)c1ccc(C(=C(c2ccc(N(C)C)cc2)c2ccc(N(C)C)cc2)c2ccc(N(C)C)cc2)cc1
7. COc1ccc(-n2cnnc2-c2nsc3ccccc23)cc1

1: > 100 µM; 2: 46.7 µM; 3: > 100 µM; 4: > 100 µM; 5: > 100 µM; 6: 42.4 µM; 7: > 100 µM

For each of the items listed, what is its TGI?
1. COc1cc2c(c(OC)c1OC)-c1ccc(SC)c(=O)cc1[C@@H](NCc1ccc(C#N)cc1)CC2
2. Cc1ccc(S(=O)(=O)N/N=C(\c2nc3ccc(Cl)cc3[nH]c2=O)C(O)c2cccc([N+](=O)[O-])c2)cc1 (stereo not drawn)
3. Cc1ccc(SC(CCC(Sc2ccc(C)cc2)Sc2ccc(C)cc2)Sc2ccc(C)cc2)cc1
4. O=C1c2ccccc2C(Br)(Br)c2ccccc21
5. COc1ccc(OC)c2c1CC(C(=O)O)(C(=O)O)CC2=O

0.00388 µM
> 100 µM
> 100 µM
> 100 µM
> 100 µM

* * *

# System: HT29 colon
# Procedure Text: NCI tumour cell line growth inhibition, 48 h
Observed Property: TGI

{"columns": ["Molecule", "TGI"],
 "data": [
  ["COC(=O)[C@]1(c2cc3ccccc3n2S(=O)(=O)c2ccccc2)CC2CN(C(C)=O)C1CC2=O (stereo partly specified)", "4.55 µM"]
]}

Look at each molecule and report its TGI.
1. O=C(CO[N+](=O)[O-])Nc1ccc(C(=O)/C=C/c2ccc(Cl)cc2)cc1
2. CO[C@H]1/C=C/O[C@@]2(C)Oc3c(C)c(O)c4c(c3C2=O)C(=O)C(/C=N/N(c2ccccc2)c2ccccc2)=C(NC(=O)/C(C)=C\C=C\[C@H](C)[C@H](O)[C@@H](C)[C@@H](O)[C@@H](C)[C@H](OC(C)=O)[C@@H]1C)C4=O

6.36 µM
3.84 µM
